# testSystem: murine SR-BI (Mus musculus, UniProt Q61009)
# Construct: expressed in transfected cells; host or cells: ldlA-7 (LDL receptor deficient Chinese hamster ovary cells)
# Sequence (Q61009 1-509): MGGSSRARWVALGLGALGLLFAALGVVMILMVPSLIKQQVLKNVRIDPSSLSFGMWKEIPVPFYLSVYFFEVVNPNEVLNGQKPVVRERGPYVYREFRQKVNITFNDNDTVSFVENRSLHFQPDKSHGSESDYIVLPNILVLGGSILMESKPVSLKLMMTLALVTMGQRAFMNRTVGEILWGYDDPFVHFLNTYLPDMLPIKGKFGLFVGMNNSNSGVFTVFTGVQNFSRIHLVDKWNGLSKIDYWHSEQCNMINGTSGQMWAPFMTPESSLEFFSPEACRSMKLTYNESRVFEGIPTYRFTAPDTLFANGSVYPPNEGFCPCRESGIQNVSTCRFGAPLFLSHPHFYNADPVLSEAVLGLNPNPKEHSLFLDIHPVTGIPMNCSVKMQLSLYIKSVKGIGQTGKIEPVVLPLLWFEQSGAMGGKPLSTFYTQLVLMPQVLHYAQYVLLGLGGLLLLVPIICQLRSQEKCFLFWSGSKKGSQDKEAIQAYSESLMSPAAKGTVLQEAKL
# measurementNotes: Uptake of DiI from DiI-HDL by ldlA[mSR-BI] cells (high throughput screen and concentration dependence)
# Format: cell-based
# conditionParameters: Test 2; DiI uptake from DiI-HDL, compounds at nominal 10 micromolar, ldlA[mSR-BI] cells
Give ENDOHDL Test 2 for every item shown.
Answers are plain numbers.

Here's what some known entries look like.
[[record]]
molecule = "CC(C)(C)c1ccc(C(=O)Nc2cccc(NC(=O)c3cccc([N+](=O)[O-])c3)c2)cc1"
recordedmeasurement = 0.35

[[record]]
molecule = "O=C(NC(NC(=S)Nc1ccc2ccccc2c1)C(Cl)(Cl)Cl)c1cccc([N+](=O)[O-])c1 (centres unmarked)"
recordedmeasurement = 0.58

[[record]]
molecule = "C=CC/C=C/c1c(NC(=O)c2ccccc2)sc2c1CCCC2"
recordedmeasurement = 0.56


Please give ENDOHDL Test 2 for each item listed below.
1. CCOc1ccc2nc3cc(/N=N/c4ccc(N)nc4N)ccc3c(N)c2c1
2. Cc1cc(C)c(CO)c(C)c1/C=N/Nc1ccc([N+](=O)[O-])cc1
3. Cc1cc(C)c(/C=N/N=C/c2c(C)cc(C)cc2C)c(C)c1

1: 0.83; 2: 0.48; 3: 1.32

Count: 2. Required value per item: ENDOHDL Test 2.
1. O=C(/C=C/C=C(Cl)Cl)c1ccc2c(c1)OCO2
2. CC(C)=C/C(=N\Nc1ccc([N+](=O)[O-])cc1[N+](=O)[O-])C1CC=CCC1 (centres unmarked)

1.24
0.52

----------
# testSystem: murine SR-BI (Mus musculus)
# Construct: expressed in transfected cells; host or cells: ldlA-7 (LDL receptor deficient Chinese hamster ovary cells)
# measurementNotes: Uptake of [3H]cholesteryl ether from [3H]CE-HDL by ldlA[mSR-BI] cells
# Type: cell-based
# conditionParameters: inhibition, mean ± SD, n=6 (n=5 where footnoted), read-out: (A) EC50 [^3H]CEt HDL uptake
measuredMetric: pEC50
Give bare numbers, as −log10 of the molar value.

Consider the following illustrative entries.
[[record]]
compound = "C/C(=N\\NC(=O)c1ccccc1I)c1ccc(N)cc1"
measuredmetric = "pEC50"
recordedmeasurement = 4.86

[[record]]
compound = "COc1ccccc1NC(=O)Nc1ccc2ccccc2c1"
measuredmetric = "pEC50"
recordedmeasurement = 5.41

[[record]]
compound = "CCCCOCCC1CCC/C1=N\\NC(N)=S (centres unmarked)"
measuredmetric = "pEC50"
recordedmeasurement = 6.62

[[record]]
compound = "c1ccc(-c2noc(-c3ccccc3)c3cccc2-3)cc1"
measuredmetric = "pEC50"
recordedmeasurement = 5.64


Identify measured pEC50 corresponding to CCCCCCC1CCC/C1=N\NC(N)=S (centres unmarked)
6.96
